# Procedure Summary: Inhibition of SERCA in sea urchin eggs assessed as Ca2+ leak rate at 10 uM relative to thapsigargin
# Set-up: species or system Lytechinus pictus
Readout Label: Ki (pM)
Use pM as the unit, but write only the number.

Answer with reported Ki of `C/C=C(/C)C(=O)O[C@H]1C(C)=C2[C@H]([C@@H]1OC(=O)CCCCCCC)[C@@](C)(OC(C)=O)C[C@H](OC(=O)CCC)[C@@]1(O)[C@H]2OC(=O)[C@@]1(C)O` 2

* * *

# Tested on: Lytechinus pictus
# Procedure Summary: Inhibition of SERCA in sea urchin eggs assessed as Ca2+ leak rate
# Set-up: scale not given: the % may be the effect or the level left
Readout Label: Activity (%)
The response must be a number in % with no trailing unit.

Please look at this compound and report its Activity: `C=C[C@@]1(C)CC[C@H]2[C@](C)(C(=O)OC)[C@H]3C=C4C=C(OC)OC(=O)[C@@H]1[C@@]42OC3=O` 61.4

Identify measured Activity corresponding to `C=C[C@]1(C)CC[C@H]2C(C)(C)[C@H]3C=C4C=C(OC)OC(=O)[C@@H]1[C@@]42OC3=O` 65.4

Report Activity for `C=C[C@@]1(C)CC[C@H]2[C@](C)(COC(C)=O)[C@H]3C=C4C=C(OC)OC(=O)[C@@H]1[C@@]42OC3=O` 64.2

Determine its reported Activity: `C=C[C@@]1(C)CC[C@H]2C(C)(C)[C@H]3C=C4C=C(OC)OC(=O)[C@@H]1[C@@]42OC3=O` 65.4

From: ChEMBL document CHEMBL1141773
